Biological target: Estrogen receptor (Homo sapiens) (UniProt P03372)
Sequence (P03372 whole entry, looked up): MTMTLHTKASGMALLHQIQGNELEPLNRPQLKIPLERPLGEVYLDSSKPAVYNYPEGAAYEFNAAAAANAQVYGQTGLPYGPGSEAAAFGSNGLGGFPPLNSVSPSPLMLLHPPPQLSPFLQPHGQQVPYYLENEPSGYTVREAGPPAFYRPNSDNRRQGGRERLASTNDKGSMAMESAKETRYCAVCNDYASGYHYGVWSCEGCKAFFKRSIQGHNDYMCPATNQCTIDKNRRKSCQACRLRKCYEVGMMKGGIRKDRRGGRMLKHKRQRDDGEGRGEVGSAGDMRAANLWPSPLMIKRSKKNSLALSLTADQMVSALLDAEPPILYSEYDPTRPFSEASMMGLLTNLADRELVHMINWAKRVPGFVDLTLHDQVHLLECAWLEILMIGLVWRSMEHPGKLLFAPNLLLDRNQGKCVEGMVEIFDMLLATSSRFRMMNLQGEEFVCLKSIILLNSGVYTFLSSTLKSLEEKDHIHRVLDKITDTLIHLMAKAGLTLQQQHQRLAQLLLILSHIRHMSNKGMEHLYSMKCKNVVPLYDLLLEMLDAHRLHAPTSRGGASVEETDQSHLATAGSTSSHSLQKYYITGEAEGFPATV
Assay: qHTS assay to identify small molecule agonists of the estrogen receptor alpha (ER-alpha) signaling pathway in the presence of an antagonist (AID 1259383); also: nearly all actives have a fitted effect of over 15% in size
Conditions: VM7Luc4E2 cells, ERE-luciferase, +ICI-182,780, 22 h; series mostly up to 92.4 µM
The source made the active and inactive calls. Calls follow the shape of the full dose curve.
Outcomes: active, inactive

Compound: CC(C)OC(=S)S
Target or system: Estrogen receptor (Homo sapiens) (UniProt P03372)
Qualitative label: inactive

Compound: CC(C)OC(=O)C(O)(c1ccc(Cl)cc1)c1ccc(Cl)cc1
Target or system: Estrogen receptor (Homo sapiens) (UniProt P03372)
Qualitative label: inactive

Compound: CC1CCC(C(C)C)C(OC(=O)c2ccccc2N)C1 (stereo unspecified)
Target or system: Estrogen receptor (Homo sapiens) (UniProt P03372)
Qualitative label: inactive

Compound: Nc1ccc(Sc2ccc(N)cc2)cc1
Target or system: Estrogen receptor (Homo sapiens) (UniProt P03372)
Qualitative label: inactive

Compound: Nc1ccccc1C(=O)OC/C=C/c1ccccc1
Target or system: Estrogen receptor (Homo sapiens) (UniProt P03372)
Qualitative label: active

Compound: ClCc1ccccc1CCl
Target or system: Estrogen receptor (Homo sapiens) (UniProt P03372)
Qualitative label: inactive

Compound: Cc1cc(SCc2sc(-c3ccc(C(F)(F)F)c(F)c3)nc2C)ccc1OCC(=O)O
Target or system: Estrogen receptor (Homo sapiens) (UniProt P03372)
Qualitative label: inactive

Compound: CC(C)(C)c1cc([N+](=O)[O-])cc(C(C)(C)C)c1O
Target or system: Estrogen receptor (Homo sapiens) (UniProt P03372)
Qualitative label: inactive

Compound: c1ccc2cc3c(cc2c1)-c1cccc2cccc-3c12
Target or system: Estrogen receptor (Homo sapiens) (UniProt P03372)
Qualitative label: inactive

Compound: CC(C)CCCCCCCOP(=O)(Oc1ccccc1)Oc1ccccc1
Target or system: Estrogen receptor (Homo sapiens) (UniProt P03372)
Qualitative label: inactive

Compound: O=C(O)COc1nc(Cl)c(Cl)cc1Cl
Target or system: Estrogen receptor (Homo sapiens) (UniProt P03372)
Qualitative label: inactive

###

Test: qHTS assay to identify small molecule HDAC inhibitors - cell viability counter screen (AID 1259365); also: nearly all actives have a fitted effect of over 50% in size
Conditions: HCT-116 viability, CellTiter-Glo ATP luminescence, 2 h; series mostly up to 92.4 µM
Active and inactive are the calls of the source. The call rests on the fitted dose curve; in most records, active means well fitted cell-killing curve with a large enough effect in the repeat runs; inconclusive means weak or mixed curves, or effect the other way; inactive means flat fitted curve, though single readings scatter.
Outcomes: active, inactive

Molecule: COc1cc(C=O)cc2c1[C@H](COC(N)=O)[C@]1(OC(C)=O)ON2C[C@H]2[C@@H]1N2C(C)=O
Qualitative label: inactive
--
Molecule: [Cl][Sb]([Cl])[Cl]
Qualitative label: inactive
--
Molecule: COP(=O)(CCC(=O)NCO)OC
Qualitative label: inactive
--
Molecule: CCOC(=O)CC(=O)CCl
Qualitative label: inactive
--
Molecule: O=C(Cl)c1ccc(Cl)cc1
Qualitative label: inactive
--
Molecule: C[C@@H]1O[C@@H](O[C@H]2C[C@@H](O)[C@]3(CO)[C@H]4[C@H](O)C[C@]5(C)[C@@H](C6=CC(=O)OC6)CC[C@]5(O)[C@@H]4CC[C@]3(O)C2)[C@H](O)[C@H](O)[C@H]1O
Qualitative label: inactive
--
Molecule: CCOP(=S)(OCC)SCS(=O)(=O)CC
Qualitative label: inactive
--
Molecule: C[C@]12CC[C@H](O)C[C@H]1CC[C@@H]1[C@@H]2C[C@@H](O)[C@]2(C)[C@@H](C3=CC(=O)OC3)CC[C@]12O
Qualitative label: inactive
--
Molecule: FC(Cl)(Cl)Cl
Qualitative label: inactive
--
Molecule: CC(C)(O)c1cnn2c(-c3ccc(F)c(-c4c(F)cccc4C#N)c3)cnc2n1
Qualitative label: inactive
--
Molecule: CCCCCCCCCC[N+](C)(C)CCCCCCCCCC
Qualitative label: active
--
Molecule: Cc1cc(C)c(C2=C(OC(=O)CC(C)(C)C)C3(CCCC3)OC2=O)c(C)c1
Qualitative label: inactive
--
Molecule: Oc1ccc2ccc3cccc4ccc1c2c34
Qualitative label: inactive
--
Molecule: O=c1ssc(Cl)c1Cl
Qualitative label: inactive
--
Molecule: CC(C)CC(C)Nc1ccc(Nc2ccccc2)cc1 (stereo unspecified)
Qualitative label: inactive
--
Molecule: CCC(C)c1cc([N+](=O)[O-])cc([N+](=O)[O-])c1OC(=O)C=C(C)C (stereo unspecified)
Qualitative label: inactive
--
Molecule: O=C(CCl)Nc1ccccc1
Qualitative label: inactive
--
Molecule: CC(O)C#N (stereo unspecified)
Qualitative label: inactive
--
Molecule: Cc1c(Cl)c(=O)oc2cc(OP(=O)(OCCCl)OCCCl)ccc12
Qualitative label: inactive
--
Molecule: CC(=O)O[C@H]1CC[C@@]2(C)C(=CC[C@@H]3[C@@H]2CC[C@]2(C)C(=O)CC[C@@H]32)C1
Qualitative label: inactive
--
Molecule: COc1ccc(OC)c(CC(C)N)c1 (stereo unspecified)
Qualitative label: inactive
